Below, each entry is listed with its recorded koff.
Target: T1, high affinity SIRP-α D1 variant CV1-3
T1 chain: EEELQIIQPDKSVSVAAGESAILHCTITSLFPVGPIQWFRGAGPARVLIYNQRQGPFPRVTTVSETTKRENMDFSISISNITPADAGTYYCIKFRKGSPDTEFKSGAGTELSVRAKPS
Assay: SPR, Langmuir fit
Entry rule: numbers only, all in s⁻¹.

S132 (scFv, V domains shown) VH: DVQLVESGGGVVRPGESLRLSCAASGFSFRSYAMNWVRQAPGEGLEWVSRINSGGGGTDYADSVKGRFTISRDNSKNTLYLQMNSLRAEDTAVYYCAKQYDWNSFFDYWGLGALVTVSS VL: ETVLTQSPATLSVSPGERATLSCRASQTVGSKLAWHQQKPGQAPRLLIYDASNRATGIPDRFSGSGSGTDFTLTISSPQTEDSAVYYCQQYYYWPPYRFGGGTKVEIK | 7.95e-05

get_value(item= S191 (scFv, V domains shown, also called clone 191) VH: DVQLVESGGGVVRPGESLRLSCAASGFSFSSYAMNWVRQAPGEGLEWVSRINSGGGGTDYAESVKGRFTISRDNSENTLYLQMNSLRAEDTAVYYCAKQYDWNGFFDYWGLGALVTVSS VL: ETVLTQSPATLSVSPGERATLSCRASQTVGSKLAWHQQKPGQAPRLLIYDATNRATGIPDRFSGSGSGTDFTLTISGLQTEDSAVYYCQQYYYWPPYRFGGGTKVEIK , readout=koff) returns 0.000295

Reported koff ( S69 (scFv, V domains shown, also called clone 69) VH: DLQLVESGGGVVRPGESLRLSCAASGFTFSSYAMSWVRQAPGKGLEWLAGISAGGSDTYYIDSVKGRFTISRDNSKNSLYLQMNSLTAEDTAVYYCARETWNHLFDYWGLGTLVTVSS VL: ALTQPASVSANPGETVKIICSGGDYYSTYYGWYQQKSPGSAPVTVIHSDDKRPSDIPSRFSGSASGSAATLTITGVRVEDEAVYFCGAYDGRTYINTFGAGTTLTVL ) = 0.000233

// sample S214 (scFv, V domains shown) VH: DVQLVESEGGVVRPGESLRLSCEASGFTFRNSYMTWVRQAPGEGLEWVSTISDTGDTAYYADSVKGRFTISRDNSKNSLYLQMNSLRAEDTAIYYCAKSWIWWTFFDYWGLGTLVTVSS VL: ALTQPASVSANLGGTVEITCSGGNSNHYGWYQQKSPGSAPVTLIYADTNRPSNIPSRFSGSTSGSTSTLTITGVQAEDEAVYYCGGSSTGDGIFGAGTTLTVL , its koff was 0.00453

Reported koff for S30 (scFv, V domains shown, also called clone 30) VH: DVQLVESGGGVVRPGESLRLSCEASGFTFSSDAMSWVRQAPGKGLEWVSGISSGSSTYYGGSVKGRFTISRDNSKNTLYLQMNSLTAEDTAVYYCARETWNHLFDYWGLGTLVTVSS VL: ALTQPASVSASPGETVEITCSGGSDSSYYYGWYQQKSPGSAPVTVIYSDNKRPSNIPSRFSGSASGSTATLTITGVRVEDEAVYYCGGYDYSTYTNPFGAGTTLTVL was 0.000142

Looking up S66 (scFv, V domains shown, also called clone 66; scFv-Fc form of AB66) VH: DVQLVESGGGVVRPGESLRLSCAASGFTFSSYAMSWVRQAPGKGLEWLAGISAGGSDTYYIDSVKGRFTISRDNPKNSLYLQMSSLTAEDTAVYYCARETWNHLFDYWGLGTLVTVSS VL: ALTQPASVSANPGETVKITCSGGDYYSTYYAWYQQKSPGSAPVTVIHSDDKRPSDIPSRFSGSASGSAATLIITGVRVEDEAVYYCGGYDGRTYINTFGAGTTLTVL , I found its koff recorded as 0.00011

# koff (binder: S164 (scFv, V domains shown) VH: DVQLVESGGGLVRPGESLRLSCAASGFTFTNYAVTWVRQAPGEGLEWVSLISVTGTTYYADSVKGRFTISRDNSKSTLYLQMNGLRAEDTAVYYCAKVTWKNVFDYWGLGTLVTVSS VL: EIVLTQSPGTLSVSPGERATFSCRASQTVGSKLAWYQQKPGQAPRLLIYDANTRATGIPARFSGSRSGTEFTLTISSLQSEDFAVYYCQQHTDWPPYTFGGGTKVEIK ) is 0.00134
